target: human CB2R (Homo sapiens, UniProt P34972); construct: The coding region of human CB2R cDNA; expressed in transfected cells; experiment: CB2R-mediated suppression of forskolin-stimulated cAMP synthesis (agonistic activity), CHO cells expressing human CB2R; type: cell-based; conditions: CHO cells expressing human CB2R, 4 μM forskolin; read-out: IC50 (inhibition of forskolin-stimulated cAMP synthesis)
Sequence (P34972 whole entry): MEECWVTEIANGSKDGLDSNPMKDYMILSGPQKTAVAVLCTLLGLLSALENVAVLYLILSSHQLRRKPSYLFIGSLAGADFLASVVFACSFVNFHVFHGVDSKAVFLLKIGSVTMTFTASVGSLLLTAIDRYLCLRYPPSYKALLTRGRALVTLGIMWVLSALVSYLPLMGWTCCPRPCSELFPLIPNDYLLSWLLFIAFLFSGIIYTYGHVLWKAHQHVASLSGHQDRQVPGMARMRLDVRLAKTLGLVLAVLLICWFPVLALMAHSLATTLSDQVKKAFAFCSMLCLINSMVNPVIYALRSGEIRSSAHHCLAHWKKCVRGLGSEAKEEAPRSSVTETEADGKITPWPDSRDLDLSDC
Observed Property: IC50

* CCSC(=O)N1CCSC1=Nc1ccccc1C(C)C [Compound I-6] | 2.7 nM

---

Listed below: pKi values for each entry.
Biological target: human CB1 receptor (CB1R) (Homo sapiens)
Construct: expressed in transfected cells
Sequence (P21554 whole entry): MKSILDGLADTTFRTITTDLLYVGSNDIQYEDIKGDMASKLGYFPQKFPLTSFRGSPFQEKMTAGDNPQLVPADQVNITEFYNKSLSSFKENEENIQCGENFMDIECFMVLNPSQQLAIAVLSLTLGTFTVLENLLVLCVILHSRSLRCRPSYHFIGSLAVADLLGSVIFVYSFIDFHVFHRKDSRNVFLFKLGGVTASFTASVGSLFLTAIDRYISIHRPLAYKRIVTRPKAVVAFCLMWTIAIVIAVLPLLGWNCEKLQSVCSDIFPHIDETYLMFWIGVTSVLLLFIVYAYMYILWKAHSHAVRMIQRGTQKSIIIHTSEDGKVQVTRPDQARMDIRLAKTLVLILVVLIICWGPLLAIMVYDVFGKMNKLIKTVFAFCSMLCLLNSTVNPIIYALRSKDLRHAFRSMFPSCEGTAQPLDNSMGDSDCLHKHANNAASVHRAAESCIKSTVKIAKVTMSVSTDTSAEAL
Experiment: Receptor binding assay of human CB1 receptor (CB1R), membranes of CB1R-expressing CHO cells
Experimental: The crude membrane fractions were then prepared from the CB2R-expressing CHO cells. Receptor binding assay was performed by incubating the membranes with each test compound and [^3H]CP55940 (at a final concentration of 0.5 nM: NEN Life Science Products) in the assay buffer (50 mM Tris-HCl, 1 mM EDTA, 3 mM MgCl2, pH 7.4) containing 0.5% bovine serum albumin (BSA) for 2 hr at 25° C. […] The radioactivity was then counted with a liquid scintillation counter. […]
pKi: −log10 of the molar value.
Observed Property: pKi

* CCSC(=O)N1CC(C)(C)CSC1=Nc1ccccc1C(C)CC (stereo not drawn) | < 5.30
* CCSC(=S)N1CC(C)(C)CSC1=Nc1ccccc1C(C)C | < 5.30
* CSC(=S)N1CC(C)(C)CSC1=Nc1ccccc1C(C)C | < 5.30
* COc1ccccc1N=C1SCC(C)(C)CN1C(=S)SC | 5.68
* CSC(=O)N1CC(C)(C)CSC1=Nc1ccccc1C(C)C | < 5.30
* CCC(C)c1ccccc1N=C1SCC(C)(C)CN1C(=S)SC (stereo not drawn) | 5.38
